# System: HT29 colon
# method.description: NCI tumour cell line growth inhibition, 48 h
measured.attribute: TGI (µM)
Give bare numbers, in µM.

State the recorded TGI for every item in the following list.
1. Cc1c2cnccc2c(C)c2c1c1cc(O)ccc1n2C(C)C
2. CC(=O)O[C@@H]1[C@H](OC2CCCCC2(c2ccccc2)c2ccccc2)O[N+]([O-])=CC12CCCCC2 (some centres not stated)
3. Cc1ccc2nc(NC(=O)C(=O)C(C(=O)c3ccc4ccccc4c3)C3OC(=O)c4ccccc43)sc2c1 (configuration not stated)

11.5
36.2
31.3

---

# Tested on: A549 NSCLC
# method.description: NCI tumour cell line growth inhibition, 48 h
measured.attribute: TGI (µM)
Numbers only, in µM.

Examples from the recorded data:
Data request, read-out TGI, for O/N=C1/CCCC/C1=C/C=C/c1ccccc1
54.9

Data request, read-out TGI, for CCOC(=O)/C(=C/CC/C(C)=C/CC/C(C)=C/CCc1ccoc1)CC(=O)N1CCCCC1
4.14

Next up:
Data request, read-out TGI, for Cc1cccc(C(C)(C)C)c1NC(=O)C(C#N)C1=C(Cl)C(=O)c2ccccc2C1=O (stereo unspecified)
46.7

---

# Tested on: HCT-116 colon
# method.description: NCI tumour cell line growth inhibition, 48 h
So I've got a bunch of molecules here, and I need their GI50 values.

Examples from the recorded data:
Data request, read-out GI50, for Cc1cc(F)c(C(=O)Nc2cccc(-c3nncn3C(C)C)n2)cc1-n1cnc(C2CC2)c1
8.25 µM

Data request, read-out GI50, for CC(C)C[C@H](CC(=O)O)C(=O)N[C@@H](Cc1c[nH]c2ccccc12)C(=O)N[C@@H](C)c1ccccc1
> 25 µM

State the recorded GI50 for every item in the following list.
1. Cc1cccc2c(C3=C(c4cn(C)c5ccccc45)C(=O)NC3=O)cn(C)c12
2. Clc1ccc(-c2cc(-c3ccccc3)nc(N3CCN(CCCNc4ccnc5cc(Cl)ccc45)CC3)n2)cc1
3. CN(C)c1ccc(/C=C/C(=O)c2ccc(Nc3nc(Nc4ccc(F)cc4)nc(Nc4ccc(F)cc4)n3)cc2)cc1
4. Nc1nc(=O)n(C2CC(O)C(CO)O2)cc1F (stereo unspecified)

1. > 15.8 µM
2. 0.934 µM
3. 11.4 µM
4. 1.49 µM

---

# System: EKVX NSCLC
# method.description: NCI tumour cell line growth inhibition, 48 h
So I've got a bunch of molecules here, and I need their TGI values.

Examples from the recorded data:
Under EKVX NSCLC: TGI value of O=C(Nc1cccc(C(F)(F)F)c1)C(=O)C(C(=O)c1ccc(Cl)c(Cl)c1)C1OC(=O)c2ccccc21 (stereo not given) ?
> 100 µM

Under EKVX NSCLC: TGI value of Cc1sc2c(c1C)C(=O)c1cccn1-2 ?
> 100 µM

Under EKVX NSCLC: TGI value of Oc1ccc(NC(=S)Nc2ccccc2)cc1 ?
> 100 µM

Under EKVX NSCLC: TGI value of CC(=O)N1C(C(=O)NN2CCOCC2)CSC1c1ccccc1 (stereo not given) ?
> 100 µM

Under EKVX NSCLC: TGI value of COc1ccc(/C=C2/N=C(N/N=C\C(O)C(O)C(O)CO)NC2=O)cc1 (stereo not given) ?
> 100 µM

Under EKVX NSCLC: TGI value of Cc1cc(=O)oc2c(C3=NN(C=O)C(c4ccccc4)C3)c(O)ccc12 (stereo not given) ?
> 100 µM

Under EKVX NSCLC: TGI value of CNC(=O)c1cc(Oc2ccc3nc(NC(=O)Nc4ccc(CN5CCOCC5)c(C(F)(F)F)c4)sc3c2)ccn1 ?
7.55 µM

Under EKVX NSCLC: TGI value of O/N=C1/CCC/C1=C\c1ccccc1 ?
> 100 µM

State the recorded TGI for every item in the following list.
1. Nc1nc(Cl)cc(NCC2(CO)CCCCC2)n1
2. CC(=O)c1ccc(N2C(=O)C3c4[nH]c5ccccc5c4C4CCC(C(C)(C)C)CC4C3C2=O)cc1 (stereo not given)
3. Cc1ccc2nc(N)[nH]c(=O)c2c1Sc1ccncc1

1. > 100 µM
2. 94.1 µM
3. > 100 µM
